Where these numbers come from: patent US20210380703A1

# TGT: mouse ACVR2A (mouse, UniProt P27038 20-135, limits assumed)
# Sequence (P27038 20-135 limits assumed): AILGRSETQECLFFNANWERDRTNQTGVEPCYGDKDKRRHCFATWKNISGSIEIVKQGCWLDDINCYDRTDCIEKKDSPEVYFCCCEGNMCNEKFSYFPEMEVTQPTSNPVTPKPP
# TEST_SUMMARY: ELISA; also: test concentration or dose not given here
Entries and their optical density
API: value field is a number in OD; no unit string.

Task item: Quick one: optical density of 370_B05 (antibody, V domains shown, VH/VL only) VH: EVQLLESGGGLVQPGGSLRLSCAASGFTFSSYGMNWVRQAPGKGLEWVASINYNGGYTSYADSVKGRFTISRDNSKNTLYLQMNSLRAEDTAVYYCARSATWHDTHLDYWGQGTLVTVSS VL: DIQMTQSPSSLSASVGDRVTITCRASQSILTYVNWYQQKPGKAPKLVIYAATSRASGVPSRFSGSGSGTDFTLTISSLQPEDFATYYCQQSYENPLTFGGGTKVEIK ?
Reply: 3.11

Task item: Can you look up the measured optical density of 376_B09 (antibody, V domains shown, VH/VL only) VH: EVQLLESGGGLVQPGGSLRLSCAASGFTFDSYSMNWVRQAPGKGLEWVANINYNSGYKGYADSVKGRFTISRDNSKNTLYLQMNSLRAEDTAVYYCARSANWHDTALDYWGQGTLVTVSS VL: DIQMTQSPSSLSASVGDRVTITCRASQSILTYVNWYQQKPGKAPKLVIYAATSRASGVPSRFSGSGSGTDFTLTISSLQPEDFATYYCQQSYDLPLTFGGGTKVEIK for me?
Reply: 3.72

Task item: Which measured optical density value corresponds to 373_B08 (antibody, V domains shown, VH/VL only) VH: EVQLLESGGGLVQPGGSLRLSCAASGFTFDSYSMNWVRQAPGKGLEWVANINYNSGYKGYADSVKGRFTISRDNSKNTLYLQMNSLRAEDTAVYYCARSATWHDTHLDYWGQGTLVTVSS VL: DIQMTQSPSSLSASVGDRVTITCRASQSILTYLNWYQQKPGKAPKLVIYAATSLASGVPSRFSGSGSGTDFTLTISSLQPEDFATYYCQQSYENPLTFGGGTKVEIK ?
Reply: 3.66

Task item: Returns the measured optical density for the input binder. Input: 374_G06 (antibody, V domains shown, VH/VL only) VH: EVQLLESGGGLVQPGGSLRLSCAASGFTFSSYGMHWVRQAPGKGLEWVASINYNGGYTSYADSVKGRFTISRDNSKNTLYLQMNSLRAEDTAVYYCARSANWHDTALDYWGQGTLVTVSS VL: DIQMTQSPSSLSASVGDRVTITCRASQSILSYLNWYQQKPGKAPKLLIYAVTSRASGVPSRFSGSGSGTDFTLTISSLQPEDFATYYCQQSYDLPLTFGGGTKVEIK
Reply: 3.42

Task item: What value of measured optical density is listed for 370_A06 (antibody, V domains shown, VH/VL only) VH: EVQLLESGGGLVQPGGSLRLSCAASGFTFSSYSMNWVRQAPGKGLEWVASINYNSGYKSYADSVKGRFTISRDNSKNTLYLQMNSLRAEDTAVYYCARSATWHDTHLDYWGQGTLVTVSS VL: DIQMTQSPSSLSASVGDRVTITCRASQSIVTYLNWYQQKPGKAPKLVIYAATSLASGVPSRFSGSGSGTDFTLTISSLQPEDFATYYCQQSYDLPLTFGGGTKVEIK ?
Reply: 2.77
